All values here come from paper PMC12406195.

Listed here: items and their measured IC50.
- System: MDA-MB-231 cells
- assay.comment: Chemosensitivity (MTT cell viability) assay, MDA-MB-231
- Type: cell-based, human
- particulars: MDA-MB-231, 96 h, n = 9

{"compound": "N.N.O=C([O-])C1(C(=O)[O-])CCC1.[Pt+2] [CARB, carboplatin, reference compound]", "assayed.system": "MDA-MB-231 cells", "IC50": "16 µM"}

# evaluate next
So, [NH2][Pt]([NH2])([Cl])[Cl] [CDDP, cisplatin, reference compound] ? Its IC50 was 2.2 µM
